Attribution: paper PMC2756588

Measured On: T1, Cyk3, Q07533
T1 sequence (Q07533 1-83, looked up): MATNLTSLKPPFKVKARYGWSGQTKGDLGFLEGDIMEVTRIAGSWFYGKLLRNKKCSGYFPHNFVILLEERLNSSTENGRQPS
Assay Protocol: SPOT array
Condition Description: median of control spots 1451
Listed binders paired with reported SPOT intensity
API note: the answer field is a bare number with no unit suffix.

Examples with answers:
>>> df
            binder   readout_label  endpoint_value
0  PSRRAPLQLPQLVNK  SPOT intensity               0
1  NVLRKILEIPLHSFS  SPOT intensity               1
2  TIRRRAPLSLLESHT  SPOT intensity               3
3  AIPPPVPNRPGGTTN  SPOT intensity               2
4  RPVPPPPPMRTTTEG  SPOT intensity               0

Given item VRTRRRPPPPPIPST , the value recorded as its SPOT intensity is 1

Given item PAPPPPPRASRPTPN , the value recorded as its SPOT intensity is 1
